The origin of these recorded values is ChEMBL document CHEMBL3885861.

- Organism: Rattus norvegicus
- Assay Method Text: Open TG-GATES - Regimen: Daily Repeat
- Assay type: toxicity, organism-based, Sprague-Dawley
- Design: regimen Daily Repeat, gender Male, age 6 weeks
- Study Conditions: in vivo, po, 0 mg/kg, […], tissue Blood, route gavage, dose level Control, time 28 day
Listing of entries alongside the reported Hb.
Only the number, expressed in g/dL, is required.

Worked set:
CN1C(=O)CCS(=O)(=O)C1c1ccc(Cl)cc1 (stereo not drawn) [CHLORMEZANONE]; 15
CCOc1ccc(NC(C)=O)cc1 [PHENACETIN]; 15
O=C(OC[C@H]1O[C@@H](OC(=O)c2cc(O)c(O)c(OC(=O)c3cc(O)c(O)c(O)c3)c2)[C@H](OC(=O)c2cc(O)c(O)c(OC(=O)c3cc(O)c(O)c(O)c3)c2)[C@@H](OC(=O)c2cc(O)c(O)c(OC(=O)c3cc(O)c(O)c(O)c3)c2)[C@@H]1OC(=O)c1cc(O)c(O)c(OC(=O)c2cc(O)c(O)c(O)c2)c1)c1cc(O)c(O)c(OC(=O)c2cc(O)c(O)c(O)c2)c1 [TANNIC ACID]; 14.7
Brc1ccccc1 [BROMOBENZENE]; 14.9
COC(=O)C1=C(C)NC(C)=C(C(=O)OC)C1c1ccccc1[N+](=O)[O-] [NIFEDIPINE]; 13.4

**Q:** Tell me the measured Hb of CCCc1cc(=O)[nH]c(=S)[nH]1 [PROPYLTHIOURACIL] , please.
**A:** 15.3

**Q:** Item: CC(C)NNC(=O)c1ccncc1 [IPRONIAZID]
**A:** 14.5

**Q:** Item: Nc1c2c(nc3ccccc13)CCCC2 [TACRINE]
**A:** 15.6

**Q:** Item: NC1=NC(=O)C(c2ccccc2)O1 (stereo not drawn) [PEMOLINE]
**A:** 15.1

**Q:** Item: CN(C)CCC(c1ccc(Cl)cc1)c1ccccn1 (stereo not drawn) [CHLORPHENIRAMINE]
**A:** 15.4

**Q:** Item: CN/C(=N/CCSCc1nc[nH]c1C)NC#N [CIMETIDINE]
**A:** 15.1

**Q:** Item: Cc1nnc2n1-c1ccc(Cl)cc1C(c1ccccc1Cl)=NC2 [TRIAZOLAM]
**A:** 15.3

**Q:** Item: CNC(=C[N+](=O)[O-])NCCSCc1ccc(CN(C)C)o1 [RANITIDINE]
**A:** 15.6

---

Listing of entries alongside the reported TBIL.
- Species: Rattus norvegicus
- Assay Method Text: Open TG-GATES - Regimen: Single
- Type: toxicity, organism-based, Sprague-Dawley
- Set-up: regimen Single, gender Male, age 6 weeks
- Study Conditions: in vivo, po, 0 mg/kg, 6 h, tissue Plasma, route gavage, dose level Control
Only the number, expressed in mg/dL, is required.

O=C(OC[C@H]1O[C@@H](OC(=O)c2cc(O)c(O)c(OC(=O)c3cc(O)c(O)c(O)c3)c2)[C@H](OC(=O)c2cc(O)c(O)c(OC(=O)c3cc(O)c(O)c(O)c3)c2)[C@@H](OC(=O)c2cc(O)c(O)c(OC(=O)c3cc(O)c(O)c(O)c3)c2)[C@@H]1OC(=O)c1cc(O)c(O)c(OC(=O)c2cc(O)c(O)c(O)c2)c1)c1cc(O)c(O)c(OC(=O)c2cc(O)c(O)c(O)c2)c1; 0.4
CC(C)NNC(=O)c1ccncc1; 0.02
CNC(=C[N+](=O)[O-])NCCSCc1ccc(CN(C)C)o1; 0.1
COC(=O)C1=C(C)NC(C)=C(C(=O)OC)C1c1ccccc1[N+](=O)[O-]; 0.036

**Q:** Tell me the measured TBIL of CN(C)CCC(c1ccc(Cl)cc1)c1ccccn1 (stereo unspecified) , please.
**A:** 0.05

**Q:** Item: CS(=O)(=O)O.Cc1ccc(NC(=O)c2ccc(CN3CCN(C)CC3)cc2)cc1Nc1nccc(-c2cccnc2)n1 [IMATINIB MESYLATE]
**A:** 0.022

---

- Organism: Rattus norvegicus
- Assay Method Text: Open TG-GATES - Regimen: Daily Repeat
- Type: toxicity, organism-based, Sprague-Dawley
- Parameters: regimen Daily Repeat, gender Male, age 6 weeks
- Study Conditions: in vivo, po, 1000 mg/kg, 72 h, tissue Blood, route gavage, dose level High, time 3 day
Measured Quantity: WBC (x10_2/uL)
Only the number, expressed in x10_2/uL, is required.

**Q:** Tell me the measured WBC of CNC(=C[N+](=O)[O-])NCCSCc1ccc(CN(C)C)o1 [RANITIDINE] , please.
**A:** 85

**Q:** Item: Cc1nnc2n1-c1ccc(Cl)cc1C(c1ccccc1Cl)=NC2 [TRIAZOLAM]
**A:** 105.8

**Q:** Item: O=C(OC[C@H]1O[C@@H](OC(=O)c2cc(O)c(O)c(OC(=O)c3cc(O)c(O)c(O)c3)c2)[C@H](OC(=O)c2cc(O)c(O)c(OC(=O)c3cc(O)c(O)c(O)c3)c2)[C@@H](OC(=O)c2cc(O)c(O)c(OC(=O)c3cc(O)c(O)c(O)c3)c2)[C@@H]1OC(=O)c1cc(O)c(O)c(OC(=O)c2cc(O)c(O)c(O)c2)c1)c1cc(O)c(O)c(OC(=O)c2cc(O)c(O)c(O)c2)c1 [TANNIC ACID]
**A:** 91.3

**Q:** Item: CCOc1ccc(NC(C)=O)cc1 [PHENACETIN]
**A:** 108.7

**Q:** Item: CN/C(=N/CCSCc1nc[nH]c1C)NC#N [CIMETIDINE]
**A:** 96.4

**Q:** Item: COC(=O)C1=C(C)NC(C)=C(C(=O)OC)C1c1ccccc1[N+](=O)[O-] [NIFEDIPINE]
**A:** 97.2

---

- Organism: Rattus norvegicus
- Assay Method Text: Open TG-GATES - Regimen: Daily Repeat
- Format: toxicity, organism-based, Sprague-Dawley
- Parameters: regimen Daily Repeat, gender Male, age 6 weeks
- Study Conditions: in vivo, po, 300 mg/kg, 72 h, tissue Blood, route gavage, dose level Middle, time 3 day
Listing of entries alongside the reported Plat.
Only the number, expressed in x10_4/uL, is required.

**Q:** Tell me the measured Plat of O=C(OC[C@H]1O[C@@H](OC(=O)c2cc(O)c(O)c(OC(=O)c3cc(O)c(O)c(O)c3)c2)[C@H](OC(=O)c2cc(O)c(O)c(OC(=O)c3cc(O)c(O)c(O)c3)c2)[C@@H](OC(=O)c2cc(O)c(O)c(OC(=O)c3cc(O)c(O)c(O)c3)c2)[C@@H]1OC(=O)c1cc(O)c(O)c(OC(=O)c2cc(O)c(O)c(O)c2)c1)c1cc(O)c(O)c(OC(=O)c2cc(O)c(O)c(O)c2)c1 , please.
**A:** 118.8

---

- Species on record: Rattus norvegicus
- Assay Method Text: Open TG-GATES - Regimen: Daily Repeat
- Assay type: toxicity, organism-based, Sprague-Dawley
- Set-up: regimen Daily Repeat, gender Male, age 6 weeks
- Study Conditions: in vivo, po, 100 mg/kg, […], tissue Blood, route gavage, dose level Low, time 14 day
Measured Quantity: Hb (g/dL)
Only the number, expressed in g/dL, is required.

Worked set:
CN/C(=N/CCSCc1nc[nH]c1C)NC#N [CIMETIDINE]; 14.4
Cc1nnc2n1-c1ccc(Cl)cc1C(c1ccccc1Cl)=NC2 [TRIAZOLAM]; 14.4
CNC(=C[N+](=O)[O-])NCCSCc1ccc(CN(C)C)o1 [RANITIDINE]; 14.7
O=C(OC[C@H]1O[C@@H](OC(=O)c2cc(O)c(O)c(OC(=O)c3cc(O)c(O)c(O)c3)c2)[C@H](OC(=O)c2cc(O)c(O)c(OC(=O)c3cc(O)c(O)c(O)c3)c2)[C@@H](OC(=O)c2cc(O)c(O)c(OC(=O)c3cc(O)c(O)c(O)c3)c2)[C@@H]1OC(=O)c1cc(O)c(O)c(OC(=O)c2cc(O)c(O)c(O)c2)c1)c1cc(O)c(O)c(OC(=O)c2cc(O)c(O)c(O)c2)c1 [TANNIC ACID]; 14.3

Proceed to the following item.
**Q:** Tell me the measured Hb of COC(=O)C1=C(C)NC(C)=C(C(=O)OC)C1c1ccccc1[N+](=O)[O-] [NIFEDIPINE] , please.
**A:** 14.5

---

- Species on record: Rattus norvegicus
- Assay Method Text: Open TG-GATES - Regimen: Daily Repeat
- Type: toxicity, organism-based, Sprague-Dawley
- Design: regimen Daily Repeat, gender Male, age 6 weeks
- Study Conditions: in vivo, po, 300 mg/kg, […], tissue Plasma, route gavage, dose level Middle, time 28 day
Measured Quantity: K (meq/L)
Only the number, expressed in meq/L, is required.

Worked set:
CNC(=C[N+](=O)[O-])NCCSCc1ccc(CN(C)C)o1; 3.6
CN/C(=N/CCSCc1nc[nH]c1C)NC#N; 3.4
Cc1nnc2n1-c1ccc(Cl)cc1C(c1ccccc1Cl)=NC2; 4.1
O=C(OC[C@H]1O[C@@H](OC(=O)c2cc(O)c(O)c(OC(=O)c3cc(O)c(O)c(O)c3)c2)[C@H](OC(=O)c2cc(O)c(O)c(OC(=O)c3cc(O)c(O)c(O)c3)c2)[C@@H](OC(=O)c2cc(O)c(O)c(OC(=O)c3cc(O)c(O)c(O)c3)c2)[C@@H]1OC(=O)c1cc(O)c(O)c(OC(=O)c2cc(O)c(O)c(O)c2)c1)c1cc(O)c(O)c(OC(=O)c2cc(O)c(O)c(O)c2)c1; 4.5
CCOc1ccc(NC(C)=O)cc1; 4.1

**Q:** Tell me the measured K of COC(=O)C1=C(C)NC(C)=C(C(=O)OC)C1c1ccccc1[N+](=O)[O-] , please.
**A:** 3.8
